Just for reference, ChEMBL document CHEMBL1961873 is where these values come from.

- assayed_target: Vascular endothelial growth factor receptor 1 (Homo sapiens) (UniProt P17948)
- Sequence (P17948 whole entry): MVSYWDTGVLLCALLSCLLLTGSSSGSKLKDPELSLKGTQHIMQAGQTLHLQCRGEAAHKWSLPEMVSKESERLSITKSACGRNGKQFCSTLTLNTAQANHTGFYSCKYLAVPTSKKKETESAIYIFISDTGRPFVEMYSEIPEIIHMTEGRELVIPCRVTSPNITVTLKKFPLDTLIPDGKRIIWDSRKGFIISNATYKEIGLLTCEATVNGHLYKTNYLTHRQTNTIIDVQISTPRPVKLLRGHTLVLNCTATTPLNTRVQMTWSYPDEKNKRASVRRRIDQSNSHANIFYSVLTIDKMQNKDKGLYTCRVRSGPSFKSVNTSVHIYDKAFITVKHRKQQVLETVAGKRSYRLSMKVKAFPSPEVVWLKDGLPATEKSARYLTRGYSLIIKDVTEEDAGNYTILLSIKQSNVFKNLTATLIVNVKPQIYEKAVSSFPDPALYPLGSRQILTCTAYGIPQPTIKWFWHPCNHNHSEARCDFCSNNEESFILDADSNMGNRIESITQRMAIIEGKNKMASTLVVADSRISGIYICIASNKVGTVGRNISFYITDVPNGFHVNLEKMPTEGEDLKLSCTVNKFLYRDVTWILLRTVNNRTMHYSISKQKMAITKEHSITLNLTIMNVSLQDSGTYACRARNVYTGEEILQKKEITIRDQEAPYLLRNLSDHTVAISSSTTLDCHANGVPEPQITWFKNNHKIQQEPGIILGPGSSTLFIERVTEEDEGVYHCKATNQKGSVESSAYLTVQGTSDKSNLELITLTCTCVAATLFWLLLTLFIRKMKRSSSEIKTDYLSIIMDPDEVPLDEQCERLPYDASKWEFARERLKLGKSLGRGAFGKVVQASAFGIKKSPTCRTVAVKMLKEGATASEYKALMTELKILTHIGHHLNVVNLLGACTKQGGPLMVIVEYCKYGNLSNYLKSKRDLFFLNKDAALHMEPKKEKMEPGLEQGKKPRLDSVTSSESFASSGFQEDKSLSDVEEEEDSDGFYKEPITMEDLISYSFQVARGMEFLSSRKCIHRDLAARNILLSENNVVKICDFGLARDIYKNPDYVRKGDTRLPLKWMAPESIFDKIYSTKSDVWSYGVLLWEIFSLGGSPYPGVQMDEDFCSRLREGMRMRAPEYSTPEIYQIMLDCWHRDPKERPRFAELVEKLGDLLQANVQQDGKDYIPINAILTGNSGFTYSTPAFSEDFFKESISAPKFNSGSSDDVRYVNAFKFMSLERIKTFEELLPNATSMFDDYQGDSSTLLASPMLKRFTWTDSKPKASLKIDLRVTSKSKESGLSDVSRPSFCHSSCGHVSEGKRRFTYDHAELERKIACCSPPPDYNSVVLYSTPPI
- test_settings: at 1 µM
- Description: GSK_PKIS: FLT1 mean inhibition at 1 uM [Nanosyn]
result_type: inhibition (%)
Numbers only, in %.

// known answers, use as guide
inhibition value, target or system Vascular endothelial growth factor receptor 1 (Homo sapiens) (UniProt P17948), for CCn1c(-c2nonc2N)nc2cncc(C(=O)N3CC[C@H](N)C3)c21 : 4.67

inhibition value, target or system Vascular endothelial growth factor receptor 1 (Homo sapiens) (UniProt P17948), for NS(=O)(=O)c1cccc(-c2ccc3c(NC(=O)C4CC4)n[nH]c3c2)c1 : -0.85

inhibition value, target or system Vascular endothelial growth factor receptor 1 (Homo sapiens) (UniProt P17948), for Nc1nc(-c2ccc3c(c2)C(=Cc2cc(Br)c(O)c(Br)c2)C(=O)N3)cs1 : 0.2

Provide each entry's inhibition from the list below.
1. CC(=O)Nc1cccc(C#Cc2cncnc2Nc2ccc(OCc3cccc(F)c3)c(Cl)c2)n1
2. O=C1NC(=O)C(c2cccc(Cl)c2)=C1Nc1ccc(O)c(Cl)c1
3. CCn1c(-c2nonc2N)nc2cnc(Oc3cccc(NC(=O)c4ccc(OCCN5CCOCC5)cc4)c3)cc21
4. COc1ccc(-c2ccncc2)cc1C(N)=O
5. CS(=O)(=O)CCNCc1ccc(-c2ccc3ncnc(Nc4ccc(OCc5cccc(F)c5)c(C(F)(F)F)c4)c3c2)o1
6. Nc1ncnc2occ(-c3ccc(NC(=O)Nc4cc(C(F)(F)F)cc(C(F)(F)F)c4)cc3)c12

-- reply
1. -0.69
2. 1.36
3. 2.14
4. 2.25
5. -0.68
6. 73.9

* * *

- assayed_target: Activated CDC42 kinase 1 (Homo sapiens);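 also: values are mean inhibition of TNK2, from the GSK PKIS screening dataset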
- test_settings: at 0.1 µM
Please go through the items and note down their inhibition.
Give bare numbers, in %.

// known answers, use as guide
Sample Cc1cc(O)cc(C)c1/C=C/c1cncc(-c2nn[nH]n2)c1 ; inhibition observed: 1.68

Sample NC(=O)c1cccc(Nc2nccc(Nc3cccc4[nH]ncc34)n2)c1 ; inhibition observed: 5.44

Sample CCn1c(-c2nonc2N)nc2cncc(C(=O)N3CC[C@H](N)C3)c21 ; inhibition observed: 1.08

Sample COc1cc2ncn(-c3cc(O[C@@H](C)c4ccccc4Cl)c(C(N)=O)s3)c2cc1OC ; inhibition observed: 3.06

Sample Cc1nnc(-c2ccc(C)c(-c3ccc(C(=O)Nc4cccc(C#N)c4)cc3)c2)o1 ; inhibition observed: 0.82

Now consider the entry below.
Sample CS(=O)(=O)CCN(CC#N)Cc1ccc(-c2ccc3ncnc(Nc4ccc(OCc5cccc(F)c5)c(Cl)c4)c3c2)o1 ; inhibition observed: -0.59

* * *

- assayed_target: Cyclin-dependent kinase 2 (Homo sapiens);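 also: mean inhibition measured against the CDK2/cyclin E complex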
- test_settings: at 1 µM
Please go through the items and note down their inhibition.
Answers are plain numbers, in %.

Sample CCn1c(-c2nonc2N)nc2c(N3CCCC3)nccc21 ; inhibition observed: 5.24

Sample O=C1NC(=O)C(c2ccccc2Cl)=C1Nc1cccc(O)c1 ; inhibition observed: 18.7

Sample Fc1cccc(COc2ccc(Nc3ncnc4cc(-c5ccc[nH]5)sc34)cc2Cl)c1 ; inhibition observed: 2.07

Provide each entry's inhibition from the list below.
1. CS(=O)(=O)CCNCc1ccc(-c2ccc3ncnc(Nc4ccc(OCc5cccc(F)c5)c(C(F)(F)F)c4)c3c2)o1
2. COc1cc(C=NNc2ncnc3c2cnn3-c2ccccc2)ccc1O
3. CCn1c(-c2nonc2N)nc2c(C#CC(C)(C)O)nc(OC[C@@H](N)c3ccccc3)cc21

-- reply
1: 3.21; 2: 13.7; 3: 1.32

Provide each entry's inhibition from the list below.
1. COC(=O)Nc1nc2cc(Oc3ccc(NC(=O)Nc4cccc(C(=O)O)c4)cc3)ccc2[nH]1
2. CCCN1CCC(Oc2cc(Nc3nc(Nc4cccc(F)c4C(N)=O)c4cc[nH]c4n3)c(OC)cc2Cl)CC1
3. O=C1NC(=O)C(c2ccc(Cl)cc2)=C1Nc1ccc(Cl)c(C(=O)O)c1
4. COc1cc2c(cc1Nc1nc(N3CCc4ccccc43)c3cc[nH]c3n1)N(C(=O)CN(C)C)CC2
5. COc1ccc(-c2ccncc2)cc1C(N)=O
6. COC(=O)Nc1nc2cc(Oc3cccc(NC(=O)Nc4cc(C(F)(F)F)ccc4F)c3)ccc2[nH]1
7. O=C1NC(=O)C(c2cccc(Cl)c2)=C1Nc1ccc(O)c(Cl)c1
8. Cc1nn(C)c2cc(N(C)c3ccnc(Nc4cccc(S(N)(=O)=O)c4)n3)ccc12

-- reply
[1.67, 0.71, 0.53, 1.6, 4.66, 1.21, 10.6, 8.5]
